# Assay procedure: AUC (0 to infinity) in healthy human at 8 mg/kg, iv administered as 30 mins infusion every 24 hrs measured on day 14
# Format: ADME, organism-based
# Design: time infinity, dose 8 mg/kg, route intravenous
# Test settings: plasma
Metric name: AUC(0-inf) (µg·h/mL)
Write the number in µg·h/mL without appending the unit.

Specify reported AUC(0-inf) for the compound shown: CCCCCCCCCC(=O)N[C@@H](Cc1c[nH]c2ccccc12)C(=O)N[C@H](CC(N)=O)C(=O)N[C@@H](CC(=O)O)C(=O)N[C@@H]1C(=O)NCC(=O)N[C@@H](CCCN)C(=O)N[C@@H](CC(=O)O)C(=O)N[C@H](C)C(=O)N[C@@H](CC(=O)O)C(=O)NCC(=O)N[C@H](CO)C(=O)N[C@@H]([C@H](C)CC(=O)O)C(=O)N[C@@H](CC(=O)c2ccccc2N)C(=O)O[C@@H]1C 1090

====

# Assay procedure: Clearance in moderately obese adult human at 4 mg/kg, iv administered as single dose 30 mins infusion
# Assay type: ADME, organism-based
# Set-up: dose 4 mg/kg, route intravenous
# Test settings: in vivo
Metric name: clearance (mL/min/kg)
The reply should contain only the number, in mL/min/kg.

Give a short answer stating reported clearance for CCCCCCCCCC(=O)N[C@@H](Cc1c[nH]c2ccccc12)C(=O)N[C@H](CC(N)=O)C(=O)N[C@@H](CC(=O)O)C(=O)N[C@@H]1C(=O)NCC(=O)N[C@@H](CCCN)C(=O)N[C@@H](CC(=O)O)C(=O)N[C@H](C)C(=O)N[C@@H](CC(=O)O)C(=O)NCC(=O)N[C@H](CO)C(=O)N[C@@H]([C@H](C)CC(=O)O)C(=O)N[C@@H](CC(=O)c2ccccc2N)C(=O)O[C@@H]1C . 0.271

====

# Assay procedure: Cmax in healthy human at 8 mg/kg, iv administered as 30 mins infusion every 24 hrs measured on day 1
# Type: ADME, organism-based
# Set-up: dose 8 mg/kg, route intravenous
# Test settings: in vivo
Metric name: Cmax (µg/mL)
Write it as a number; the unit µg/mL goes unstated.

Look up and report measured Cmax for this entry: CCCCCCCCCC(=O)N[C@@H](Cc1c[nH]c2ccccc12)C(=O)N[C@H](CC(N)=O)C(=O)N[C@@H](CC(=O)O)C(=O)N[C@@H]1C(=O)NCC(=O)N[C@@H](CCCN)C(=O)N[C@@H](CC(=O)O)C(=O)N[C@H](C)C(=O)N[C@@H](CC(=O)O)C(=O)NCC(=O)N[C@H](CO)C(=O)N[C@@H]([C@H](C)CC(=O)O)C(=O)N[C@@H](CC(=O)c2ccccc2N)C(=O)O[C@@H]1C 116

====

# Assay procedure: Half life in healthy human subjects at 12 mg/kg, iv administered as 30 mins infusion every 24 hrs measured on day 14
# Format: ADME, organism-based
# Set-up: dose 12 mg/kg, route intravenous
# Test settings: in vivo
Metric name: half-life (h)
A number alone suffices; assume h.

Quickly give me recorded half-life for CCCCCCCCCC(=O)N[C@@H](Cc1c[nH]c2ccccc12)C(=O)N[C@H](CC(N)=O)C(=O)N[C@@H](CC(=O)O)C(=O)N[C@@H]1C(=O)NCC(=O)N[C@@H](CCCN)C(=O)N[C@@H](CC(=O)O)C(=O)N[C@H](C)C(=O)N[C@@H](CC(=O)O)C(=O)NCC(=O)N[C@H](CO)C(=O)N[C@@H]([C@H](C)CC(=O)O)C(=O)N[C@@H](CC(=O)c2ccccc2N)C(=O)O[C@@H]1C 7.9
